FYI, the data here is from patent EP1192149B1.

- Tested System: hGALR-1 (Homo sapiens, UniProt P47211)
- Construct: hGALR-1 that is contained in membranes from human Bowes melanoma cells; endogenous in cells; host or cells: human Bowes melanoma cells (membranes)
- Sequence (P47211 1-349): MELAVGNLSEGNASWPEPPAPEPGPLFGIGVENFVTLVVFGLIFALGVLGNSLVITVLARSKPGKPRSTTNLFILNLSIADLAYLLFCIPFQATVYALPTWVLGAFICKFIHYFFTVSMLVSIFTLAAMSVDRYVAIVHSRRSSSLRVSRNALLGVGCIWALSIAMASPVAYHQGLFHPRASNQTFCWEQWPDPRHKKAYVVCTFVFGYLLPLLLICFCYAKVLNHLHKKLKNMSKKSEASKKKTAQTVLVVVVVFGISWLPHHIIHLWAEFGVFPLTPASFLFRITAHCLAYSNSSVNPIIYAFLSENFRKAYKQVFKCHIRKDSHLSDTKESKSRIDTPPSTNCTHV
- Assay Notes: Human Galanin-1 Receptor Binding Assay (SPA, 125I human galanin displacement)
- Particulars: membranes from human Bowes melanoma cells, Table II, formula (II) compounds, read-out: hGAL IC50
Property Name: log10 of IC50 (log10 of the value in nM)
Lab note - IC50 converted to log10 from values in nM.

Known log10 of IC50 results, listed for orientation:
| Compound String | Measured Result |
| --- | --- |
| O=S1(=O)C=C(c2cccs2)S(=O)(=O)CCC1 | 3.11 |
| O=S1(=O)C=C(c2ccc(OC(F)(F)F)cc2)S(=O)(=O)CCC1 | 2.69 |
| O=S1(=O)C=C(c2ccccc2)S(=O)(=O)CCC1 | 3.43 |

Q) Return reported log10 of IC50; argument: CCOc1ccc(C2=CS(=O)(=O)CCCS2(=O)=O)cc1
A) 2.77

Q) // log10 of IC50 lookup, key: O=S1(=O)C=C(c2ccc(S(=O)(=O)c3ccccc3)cc2)S(=O)(=O)CCC1
A) 3.20

Q) So what's the measured log10 of IC50 for this one? O=S1(=O)C=C(c2cccc(Br)c2)S(=O)(=O)CCC1
A) 2.95

Q) Can you share its log10 of IC50? I mean this compound: O=S1(=O)C=C(c2cccc(Cl)c2)S(=O)(=O)CCC1
A) 3.00

Q) What log10 of IC50 value was documented for this compound, O=S1(=O)C=C(c2ccccc2C(F)(F)F)S(=O)(=O)CCC1 ?
A) 2.76

Q) Any idea what log10 of IC50 was measured for O=S1(=O)C=C(c2ccc(Br)cc2)S(=O)(=O)CCC1 ?
A) 2.41

Q) Look at this compound and give its reported log10 of IC50. O=C(Oc1ccccc1)c1cccc(C2=CS(=O)(=O)CCCS2(=O)=O)c1
A) 2.64

Q) // returns reported log10 of IC50 for input CCOC(=O)c1ccc(C2=CS(=O)(=O)CCCS2(=O)=O)cc1
A) 3.00

Q) Please give the measured log10 of IC50 for this compound: O=S1(=O)C=C(c2ccc(F)cc2)S(=O)(=O)CCC1
A) 2.61
